- Test system: tyrosinase from mushroom
- assay.info: Inhibition of commercial mushroom tyrosinase (L-DOPA or L-tyrosine substrate)
- Type: biochemical
- experimental.parameters: L-tyrosine
test.readout: Tyrosinase inhibition with L-tyrosine [%]

INSERT INTO assay_data (compound, target_entity, reported) VALUES
  ('O=C(/C=C/c1ccc(Cl)cc1)NCCCCO [H-331/21]', 'tyrosinase from mushroom', '82.50±0.87% (500 µM)'),
  ('O=C(/C=C/c1ccccc1)NCCO [H-429/21]', 'tyrosinase from mushroom', '21.00±8.83% (500 µM)'),
  ('CCC(CO)NC(=O)/C=C/c1ccc(Cl)cc1 (stereo not drawn) [Compound A-01]', 'tyrosinase from mushroom', '61.80±0.40% (500 µM)'),
  ('O=C(/C=C/c1ccc(Cl)cc1Cl)NCCCCCO [H-297/20]', 'tyrosinase from mushroom', '19.09±2.53% (500 µM)'),
  ('O=C(/C=C/c1ccc(Cl)cc1Cl)NCCCCO [H-298/20]', 'tyrosinase from mushroom', '20±2.96% (500 µM)'),
  ('O=C(/C=C/c1ccc(Cl)cc1)N1CCC(O)CC1 [Compound A-99]', 'tyrosinase from mushroom', '75.14±1.60% (500 µM)');

----------
- Test system: S. typhimurium TA1537
- assay.info: Ames microplate test, TA1537;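 also: reference level is the mean solvent-control yellow wells plus SD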
- Type: cell-based, Salmonella typhimurium
- experimental.parameters: 1.0 mM, without S9
test.readout: Increase in the number of yellow wells compared to the reference level

INSERT INTO assay_data (molecule, reported) VALUES
  ('CC(CO)NC(=O)/C=C/c1ccc(Cl)cc1 (stereo not drawn)', 0.00),
  ('O=C(/C=C/c1ccc(Cl)cc1)NCCCCCO', 0.54),
  ('Cc1ccc(/C=C/C(=O)NCCCCCO)cc1', 0.33),
  ('O=C(/C=C/c1ccccc1)NCCCCCO', 0.54),
  ('CCC(O)CNC(=O)/C=C/c1ccc(Cl)cc1 (stereo not drawn)', 0.18),
  ('O=C(/C=C/c1ccccc1)NCCCCCCO', 0.18);

----------
- System: Fibroblasts (BJ)
- assay.info: Safety, MTT test in fibroblasts
- Assay type: cell-based
- experimental.parameters: 200 µM; 48 hours
test.readout: Fibroblasts (BJ) MTT

INSERT INTO measurements (compound, test_readout, reported) VALUES
  ('O=C(/C=C/c1ccc(Cl)cc1)NCCO [H-427/21]', 'Fibroblasts (BJ) MTT', '100.37±3.92 % of solvent control'),
  ('O=C(/C=C/c1ccc(Cl)cc1)NCCCCCO [Compound A-111]', 'Fibroblasts (BJ) MTT', '98.94±4.04 % of solvent control'),
  ('Cc1ccc(/C=C/C(=O)NCCCCCO)cc1 [H-415/21]', 'Fibroblasts (BJ) MTT', '96.13±3.64 % of solvent control'),
  ('O=C(/C=C/c1ccc(Cl)cc1)NCCCO [H-330/21]', 'Fibroblasts (BJ) MTT', '85.52±3.08 % of solvent control'),
  ('O=C(/C=C/c1ccccc1)NCCCCCO [Compound A-133]', 'Fibroblasts (BJ) MTT', '87.76±2.71 % of solvent control');

----------
- assay.info: Lipophilicity coefficient RM0 by reversed phase thin layer chromatography
- Format: physicochemical
- experimental.parameters: RP-18 TLC, methanol / 100 mM phosphate buffer pH = 7.4
test.readout: RM0

INSERT INTO assay_data (compound, test_readout, reported) VALUES
  ('O=C(/C=C/c1ccccc1)NCCO [H-429/21]', 'RM0', 1.27),
  ('Cc1ccc(/C=C/C(=O)NC(C)CO)cc1 (stereo not drawn) [Compound A-69]', 'RM0', 2.17),
  ('O=C(/C=C/c1ccccc1)NCCCCO [Compound A-43]', 'RM0', 1.60),
  ('O=C(/C=C/c1ccc(Cl)cc1)NCCCCO [H-331/21]', 'RM0', 2.14),
  ('O=C(/C=C/c1ccccc1)NCCCCCO [Compound A-133]', 'RM0', 2.15),
  ('CCC(CO)NC(=O)/C=C/c1ccc(Cl)cc1Cl (stereo not drawn) [H-285/20]', 'RM0', 3.08);
